Reported pKd values follow for various compounds
biological target: Nucleic Acid; test: Apparent binding affinity against DNA (5'-ACAATTAA-3') was determined using DNase I footprinting titration method; conditions: read-out: Kd app
Here pKd is given on a logarithmic scale as minus log10 of the concentration in mol/L.

- Cn1cc(NC(=O)c2cc(NC(=O)c3cc(NC(=O)c4cc5ccccc5cn4)cn3C)cn2C)cc1C(=O)NCCN1CCSCC1: 9.00
- Cn1cc(NC(=O)c2cc(NC(=O)c3cc(NC(=O)c4sccc4Cl)cn3C)cn2C)cc1C(=O)NCCN1CCC(F)(F)CC1: 7.30
- Cn1cc(NC(=O)c2cc(NC(=O)c3cc(NC(=O)c4sccc4Cl)cn3C)cn2C)cc1C(=O)NCCN1CCCC1: 8.70
- Cn1cc(NC(=O)c2cc(NC(=O)c3cc(NC(=O)c4sccc4Cl)cn3C)cn2C)cc1C(=O)NCCCN1CCOCC1: 7.15
- Cn1cc(NC(=O)c2cc(NC(=O)c3cc(NC(=O)c4sccc4Cl)cn3C)cn2C)cc1C(=O)NCCc1ccccn1: 7.00

IN: Give recorded pKd with Nucleic Acid for the following compound: `Cn1cc(NC(=O)c2cc(NC(=O)c3cc(NC(=O)c4sccc4Cl)cn3C)cn2C)cc1C(=O)NCCN1CCC(F)CC1`
OUT: 8.30

IN: Give pKd (Nucleic Acid) of the following compound: `CN(C)CCCNC(=O)c1cc(NC(=O)c2cc(NC(=O)c3cc(NC(=O)c4sccc4Cl)cn3C)cn2C)cn1C`
OUT: 8.30

IN: Value wanted: pKd (Nucleic Acid) of entry `Cn1cc(NC(=O)c2cc(NC(=O)c3cc(NC(=O)c4sccc4Cl)cn3C)cn2C)cc1C(=O)NCCCN1CCCCC1`
OUT: 7.30
